Tested on: HuTu-80 cells
ASSAY_REMARKS: Mitochondrial membrane potential, JC-10 flow cytometry
Format: cell-based, human
CONDITIONS_USED: JC-10; IC50, 48 h
Answer false if % cells with J-monomer (green, decreased membrane potential) is under 60%, and true if it is 60% or more.

Query: Decide: % cells with J-monomer (green, decreased membrane potential) of CCCCCCCCCCOCC(O)C[P+](c1ccccc1)(c1ccccc1)c1ccccc1 (centres unmarked) >= 60%?
Response: false

Query: Does the compound CCCCCCCCCCCCCCCC(=O)OCC(O)C[P+](c1ccccc1)(c1ccccc1)c1ccccc1 (centres unmarked) have recorded % cells with J-monomer (green, decreased membrane potential) that is 60% or more?
Response: true

Query: Is % cells with J-monomer (green, decreased membrane potential) at least 60%? Consider OC(CBr)C[P+](c1ccccc1)(c1ccccc1)c1ccccc1 (centres unmarked)
Response: false

Query: Does C=CCOCC(O)C[P+](c1ccccc1)(c1ccccc1)c1ccccc1.[I-] (centres unmarked) have a reported % cells with J-monomer (green, decreased membrane potential) of at least 60%?
Response: false
